- experimentalSystem: T1, 006 PSMA Fab (biotinylated (site not stated))
- T1 construct: also called Anti-PSMA Fab
- assayNotes: clonal phage ELISA on captured PSMA Fab, wells pre-incubated with PSMA antigen as competitor
Where no end group is shown, it is not given here.
Please respond with reported Phage binding ELISA signal, Anti-PSMA Fab in presence of PSMA for every item in the list.
Give bare numbers.

For orientation, consider the following solved cases.
EFNWCRPLWMCVGF (cysteine pairing not given here; also: peptide displayed as fusion to phage pIII, Peptide-180 library clone, tested as clonal phage (peptide fused to pIII of the bacteriophage)) [Phage-2934] ... 0.157
GDHLCRPSWMCVGF (Peptide-180 library clone, tested as clonal phage (peptide fused to pIII)) [Phage-2947] ... 0.0649

From here, focus on the item given below.
The value of Phage binding ELISA signal, Anti-PSMA Fab in presence of PSMA measured for the binder IDPMCKPLWMCAGF (cysteine pairing not given here; also: peptide displayed as fusion to phage pIII, Peptide-180 library clone, tested as clonal phage (peptide fused to pIII)) [Phage-2936] turned out to be 0.145
